# ASSAY_SUMMARY: Critical micelle concentration by pyrene fluorescence
# Assay type: physicochemical
# CONDITION_LABEL: pure water
Where a SMILES comes first, the peptide text is derived from it. The star is where a group is joined. Palmitoyl = CCCCCCCCCCCCCCCC(=O)*; NHhexadecyl = CCCCCCCCCCCCCCCCN*
QUANTITY_KIND: CMC (Critical Micelle Concentration) (µM)

1. CCCCCCCCCCCCCCCCNC(=O)[C@H](CCCCN)NC(=O)CNC(=O)CNC(=O)[C@H](CCCCN)NC(=O)CCCCCCCCCCCCCCC [Compound 3b] (Palmitoyl-KGGK-NHhexadecyl) | 30
2. CCCCCCCCCCCCCCCCNC(=O)[C@H](CCCCN)NC(=O)[C@H](C)NC(=O)[C@H](C)NC(=O)[C@H](CCCCN)NC(=O)CCCCCCCCCCCCCCC [Compound 2b, C15H31C(O)-Lys-(Ala)2-Lys-NHC16H33.2TFA] (Palmitoyl-KAAK-NHhexadecyl) | 41
